Cited source for all entries: patent US6713294B1

Listing of recorded Km by entry.
# Tested on: [^3H]dUMP-labelled DNA
# assay-details: Kinetic parameters on uracil substrate
# Format: biochemical
# condition-set: U-ss substrate
# Protocol: The final concentrations of the [^3H]cytosine-DNA (C) and [^3H]thymine-DNA (T) substrates were 6.5 μM and 10 μM, respectively. Release of radioactivity as a function of time was measured at 37° C. […] The kinetic parameters were determined using six different substrate concentrations to obtain the Km and Vmax values. […] Km and Vmax were calculated using the computer program Enzpack, version 3.0 after the method of Wilkinson (1961) Biochem. J., 80: 324-332.
# unit: nM | format: bare number

Asn204Asp: human UDG mutant, codon 204 Asn changed to Asp; cytosine-DNA glycosylase (CDG) (protein) MGVFCLGPWGLGRKLRTPGKGPLQLLSRLCGDHLQAIPAKKAPAGQEEPGTPPSSPLSAEQLDRIQRNKAAALLRLAARNVPVGFGESWKKHLSGEFGKPYFIKLMGFVAEERKHYTVYPPPHQVFTWTQMCDIKDVKVVILGQDPYHGPNQAHGLCFSVQRPVPPPPSLENIYKELSTDIEDFVHPGHGDLSGWAKQGVLLLDAVLTVRAHQANSHKERGWEQFTDAVVSWLNQNSNGLVFLLWGSYAQKKGSAIDRKRHHVLQTAHPSPLSVYRGFFGCRHFSKTNELLQKSGKKPIDWKEL :: 2000
Tyr147Ala (protein) MGVFCLGPWGLGRKLRTPGKGPLQLLSRLCGDHLQAIPAKKAPAGQEEPGTPPSSPLSAEQLDRIQRNKAAALLRLAARNVPVGFGESWKKHLSGEFGKPYFIKLMGFVAEERKHYTVYPPPHQVFTWTQMCDIKDVKVVILGQDPAHGPNQAHGLCFSVQRPVPPPPSLENIYKELSTDIEDFVHPGHGDLSGWAKQGVLLLNAVLTVRAHQANSHKERGWEQFTDAVVSWLNQNSNGLVFLLWGSYAQKKGSAIDRKRHHVLQTAHPSPLSVYRGFFGCRHFSKTNELLQKSGKKPIDWKEL :: 300

# ---- query molecule ----
Request: Endpoint output: Km of Asn204Gln: human UDG (UNGΔ84) mutant with Asn204 replaced by Gln (protein) MGVFCLGPWGLGRKLRTPGKGPLQLLSRLCGDHLQAIPAKKAPAGQEEPGTPPSSPLSAEQLDRIQRNKAAALLRLAARNVPVGFGESWKKHLSGEFGKPYFIKLMGFVAEERKHYTVYPPPHQVFTWTQMCDIKDVKVVILGQDPYHGPNQAHGLCFSVQRPVPPPPSLENIYKELSTDIEDFVHPGHGDLSGWAKQGVLLLQAVLTVRAHQANSHKERGWEQFTDAVVSWLNQNSNGLVFLLWGSYAQKKGSAIDRKRHHVLQTAHPSPLSVYRGFFGCRHFSKTNELLQKSGKKPIDWKEL . Value?
Response: 230
